Test system: UGTs (S-oxazepam glucuronidation in HKM)
assay info: Inhibition of R- and S-oxazepam glucuronidation in human kidney microsomes
condition: human, human kidney microsomes, pH 7.4, IC50, S-Oxazepam Glucuronide
observation type: IC50 at 2 h (µM)
Answers are plain numbers, in µM.

The molecule identified as C=C(C)[C@@H]1CCC(C)=C[C@H]1c1c(O)cc(CCCCC)cc1O registered its IC50 at 2 h at 16

###

test system: UGT2B15 (Homo sapiens, UniProt P54855)
Construct: expressed in transfected cells; cell homogenate
Sequence (P54855 24-530): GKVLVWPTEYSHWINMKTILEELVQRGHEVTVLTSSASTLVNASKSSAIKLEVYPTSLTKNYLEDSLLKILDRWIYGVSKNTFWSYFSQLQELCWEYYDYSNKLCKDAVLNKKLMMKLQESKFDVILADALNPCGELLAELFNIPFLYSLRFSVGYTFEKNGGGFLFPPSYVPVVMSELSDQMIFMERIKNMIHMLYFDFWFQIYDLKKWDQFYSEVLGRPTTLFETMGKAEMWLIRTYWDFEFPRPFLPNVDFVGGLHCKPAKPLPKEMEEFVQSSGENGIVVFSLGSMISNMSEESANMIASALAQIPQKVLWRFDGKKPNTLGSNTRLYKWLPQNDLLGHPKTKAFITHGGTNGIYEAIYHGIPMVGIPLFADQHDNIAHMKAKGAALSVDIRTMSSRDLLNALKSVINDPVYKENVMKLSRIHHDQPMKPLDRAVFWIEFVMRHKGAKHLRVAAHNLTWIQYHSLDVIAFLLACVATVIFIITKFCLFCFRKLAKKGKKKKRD
assay info: Inhibition of S-oxazepam glucuronidation in rUGT2B15 homogenate/microsomes (UGT-overexpressing HEK293)
Assay type: biochemical
condition: read-out: IC50, oxazepam glucuronidation (marginal or no inhibition); recombinant UGT microsomes (rUGT2B15)
pIC50: −log10 of the molar value.
observation type: pIC50

The molecule identified as CCCCCc1cc(O)c2c(c1)OC(C)(C)[C@@H]1CCC(C(=O)O)=C[C@@H]21 registered its pIC50 at < 4.00

###

test system: UGT2B15 (Homo sapiens, UniProt P54855)
Construct: expressed in transfected cells; cell homogenate
assay info: Inhibition of S-oxazepam glucuronidation in rUGT2B15 homogenate/microsomes (UGT-overexpressing HEK293)
Type: biochemical
condition: rUGT2B15; IC50 corrected with fu,inc; read-out: IC50,u, S-Oxazepam Glucuronide
observation type: pIC50
Numbers only, as −log10 of the molar value.

C=C(C)[C@@H]1CCC(C)=C[C@H]1c1c(O)cc(CCCCC)cc1O
5.70

Let us move to another entry and its pIC50.
The compound identified as CCCCCc1cc(O)c2c(c1)OC(C)(C)[C@@H]1CCC(C)=C[C@@H]21 [THC, Δ^9-tetrahydrocannabinol] registered its pIC50 at 6.08

###

Tested on: UGTs (R-oxazepam glucuronidation in HLM)
assay info: Inhibition of R- and S-oxazepam glucuronidation in human liver microsomes
condition: human, human liver microsomes, pH 7.4, IC50, R-Oxazepam Glucuronide
observation type: IC50 at 2 h (µM)
Give bare numbers, in µM.

The molecule identified as C=C(C)[C@@H]1CCC(C)=C[C@H]1c1c(O)cc(CCCCC)cc1O [CBD, cannabidiol] registered its IC50 at 2 h at 16

###

test system: human liver microsomes (HLM)
assay info: Inhibition of R- and S-oxazepam glucuronidation in human liver microsomes
condition: read-out: Ki,u, S-Oxazepam Glucuronide, Ki corrected with fu,inc
observation type: Ki (µM)
Give bare numbers, in µM.

The compound identified as C=C(C)[C@@H]1CCC(C)=C[C@H]1c1c(O)cc(CCCCC)cc1O [CBD, cannabidiol] registered its Ki at 3.7

###

test system: UGT2B7 (Homo sapiens, UniProt P16662)
Construct: expressed in transfected cells; microsomal fraction
Sequence (P16662 24-529): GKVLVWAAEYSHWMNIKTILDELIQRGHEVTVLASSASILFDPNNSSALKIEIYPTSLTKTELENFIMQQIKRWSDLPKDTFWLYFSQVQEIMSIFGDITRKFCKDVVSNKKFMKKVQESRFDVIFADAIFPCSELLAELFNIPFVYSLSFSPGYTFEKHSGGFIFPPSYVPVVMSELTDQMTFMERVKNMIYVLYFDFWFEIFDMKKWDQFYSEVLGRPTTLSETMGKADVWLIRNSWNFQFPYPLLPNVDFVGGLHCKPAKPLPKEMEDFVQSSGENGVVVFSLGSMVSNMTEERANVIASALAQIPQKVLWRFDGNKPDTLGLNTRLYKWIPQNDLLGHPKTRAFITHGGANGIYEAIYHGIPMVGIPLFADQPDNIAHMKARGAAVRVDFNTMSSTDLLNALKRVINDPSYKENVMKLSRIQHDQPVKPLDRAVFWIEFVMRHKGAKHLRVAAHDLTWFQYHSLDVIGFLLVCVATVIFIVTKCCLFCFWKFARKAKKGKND
assay info: Inhibition of R- and S-oxazepam glucuronidation in rUGT2B7 microsomes (UGT-overexpressing HEK293)
Assay type: biochemical
condition: read-out: IC50, oxazepam glucuronidation (marginal or no inhibition); recombinant UGT microsomes (rUGT2B7)
pIC50: −log10 of the molar value.
observation type: pIC50

The compound identified as CCCCCc1cc(O)c2c(c1)OC(C)(C)[C@@H]1CCC(C(=O)O)=C[C@@H]21 registered its pIC50 at < 4.00

###

test system: UGT1A9 (Homo sapiens)
Construct: expressed in transfected cells; microsomal fraction
Sequence (O60656 26-530): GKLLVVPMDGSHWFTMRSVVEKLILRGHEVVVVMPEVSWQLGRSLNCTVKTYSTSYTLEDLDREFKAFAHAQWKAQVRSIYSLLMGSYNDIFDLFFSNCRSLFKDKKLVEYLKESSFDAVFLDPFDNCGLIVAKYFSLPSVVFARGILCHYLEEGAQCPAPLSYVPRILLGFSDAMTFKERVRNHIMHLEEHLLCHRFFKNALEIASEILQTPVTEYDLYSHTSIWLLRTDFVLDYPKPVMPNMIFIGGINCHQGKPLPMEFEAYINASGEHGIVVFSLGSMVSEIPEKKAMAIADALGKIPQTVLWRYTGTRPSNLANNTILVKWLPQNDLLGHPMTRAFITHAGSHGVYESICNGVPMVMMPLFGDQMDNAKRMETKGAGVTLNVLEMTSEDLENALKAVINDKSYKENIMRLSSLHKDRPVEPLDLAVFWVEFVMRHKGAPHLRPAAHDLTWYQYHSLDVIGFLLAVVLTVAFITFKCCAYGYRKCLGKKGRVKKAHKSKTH
assay info: Inhibition of R-oxazepam glucuronidation in rUGT1A9 microsomes (UGT-overexpressing HEK293)
Format: biochemical
condition: read-out: IC50, oxazepam glucuronidation (marginal or no inhibition); recombinant UGT microsomes (rUGT1A9)
pIC50: −log10 of the molar value.
observation type: pIC50

The compound identified as CCCCCc1cc(O)c2c(c1)OC(C)(C)[C@@H]1CCC(C(=O)O)=C[C@@H]21 registered its pIC50 at < 4.00
